Readings of PBM E-score for the listed sequences
- target of assay: Gcr1 (UniProt P07261)
- Sequence: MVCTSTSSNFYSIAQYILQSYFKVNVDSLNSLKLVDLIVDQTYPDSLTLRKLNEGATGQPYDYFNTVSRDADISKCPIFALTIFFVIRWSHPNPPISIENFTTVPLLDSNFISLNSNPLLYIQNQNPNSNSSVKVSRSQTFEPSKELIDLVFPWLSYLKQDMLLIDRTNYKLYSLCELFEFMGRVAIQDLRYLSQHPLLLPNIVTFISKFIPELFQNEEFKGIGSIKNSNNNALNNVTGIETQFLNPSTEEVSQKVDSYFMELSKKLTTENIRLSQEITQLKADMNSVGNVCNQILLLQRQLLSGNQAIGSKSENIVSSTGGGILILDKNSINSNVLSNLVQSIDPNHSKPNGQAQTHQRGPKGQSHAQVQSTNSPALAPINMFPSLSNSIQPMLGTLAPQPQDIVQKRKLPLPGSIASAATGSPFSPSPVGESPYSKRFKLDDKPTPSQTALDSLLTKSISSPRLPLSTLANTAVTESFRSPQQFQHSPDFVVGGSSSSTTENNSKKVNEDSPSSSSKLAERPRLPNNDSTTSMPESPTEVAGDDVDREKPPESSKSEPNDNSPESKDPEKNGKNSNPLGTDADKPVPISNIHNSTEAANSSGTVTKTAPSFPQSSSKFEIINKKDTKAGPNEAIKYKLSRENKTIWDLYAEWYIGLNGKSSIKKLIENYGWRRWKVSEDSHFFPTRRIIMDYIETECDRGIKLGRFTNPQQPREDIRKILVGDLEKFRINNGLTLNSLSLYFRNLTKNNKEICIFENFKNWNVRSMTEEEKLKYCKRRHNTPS
- experiment notes: PBM E-score (8-mer binding enrichment) (E-score (-0.5 to 0.5)); higher = stronger / more preferred TF binding
- experimental parameters: protein concentration: 100 nM; construct: GST-full length
In all, about 33,000 sequences were measured (“E-score (-0.5 to 0.5)”: median about -0.011, highest 2% from about 0.28 on). The full list was thinned out, with the highest values kept by preference.
property: PBM E-score

- GAAGTCAA: 0.297
- CTAAAGAC: -0.0627
- AGGAATCC: 0.459
- ACAGCTTA: -0.0153
- AGGAATGG: 0.0654
- CGCAGCTA: 0.34
- AATGCCAC: -0.0507
- ACCGGAAC: 0.203
- AGGAATAC: 0.0815
- TATGCCAA: -0.104
- CCTTGATA: -0.0119
- GAGAATCC: 0.236
- GGTGGTCA: -0.132
- CCATCGTA: -0.145
- CATGCCGA: 0.041
- CACGGAAC: 0.0756
- GATGCCAA: 0.351
- CCGGGACA: -0.0293
- GCGGGGCC: 0.131
- CGAGCTTA: -0.185
- ACAGCTTC: 0.345
- ACCGGATA: 0.00906
- GATGCCGA: 0.335
- GGCAGCTA: 0.318

Value source: the supplement of paper PMC3334620
